experiment: Relative inhibition of PDE6 from bovine retina and PDE5 from human platelets
Please respond with reported Ratio for every item in the list.
Answers are plain numbers.

1. CCCOc1ccc(S(=O)(=O)N2CC[C@@H](N(C)C)C2)cc1-c1nc(O)c2c[nH]c3nncc-3c2n1	22
2. CCCOc1ccc(S(=O)(=O)N2CC[C@@H](N(C)C)C2)cc1-c1nc(O)c2c(NCc3ccc(F)cc3)nc3nn(Cc4ccc(OC)cc4)cc3c2n1	15
3. CCCOc1ccc(S(=O)(=O)N2CC[C@@H](N(C)C)C2)cc1-c1nc(O)c2c(Cl)nc3nn(Cc4ccc(OC)cc4)cc3c2n1	17
4. CCCOc1ccc(S(=O)(=O)N2CC[C@@H](N(C)C)C2)cc1-c1nc(O)c2c(NCc3ccc(F)cc3)[nH]c3nncc-3c2n1	160

What Ratio value was documented for this compound, CCCOc1ccc(S(=O)(=O)N2CC[C@@H](N(C)C)C2)cc1-c1nc(O)c2c(NCc3ccc(OC)c(Cl)c3)[nH]c3nncc-3c2n1 ?
180

====

Please respond with reported Ratio for every item in the list.
experiment: Relative inhibition of PDE2 from rat kidney and PDE5 from human platelets
Numbers only.

1. CCCOc1ccc(S(=O)(=O)N2CC[C@@H](N(C)C)C2)cc1-c1nc(O)c2c(Cl)nc3nn(Cc4ccc(OC)cc4)cc3c2n1	1200

Lab note: next compound to report on.
What Ratio value was documented for this compound, CCCOc1ccc(S(=O)(=O)N2CC[C@@H](N(C)C)C2)cc1-c1nc(O)c2c[nH]c3nncc-3c2n1 ?
2000

====

Please respond with reported Ratio for every item in the list.
experiment: Relative inhibition of PDE4 from rat kidney and PDE5 from human platelets
Give bare numbers.

Past entries and their recorded results:
1. CCCOc1ccc(S(=O)(=O)N2CC[C@@H](N(C)C)C2)cc1-c1nc(O)c2c(Cl)nc3nn(Cc4ccc(OC)cc4)cc3c2n1	310
2. CCCOc1ccc(S(=O)(=O)N2CC[C@@H](N(C)C)C2)cc1-c1nc(O)c2c[nH]c3nncc-3c2n1	3200

What Ratio value was documented for this compound, CCCOc1ccc(S(=O)(=O)N2CC[C@@H](N(C)C)C2)cc1-c1nc(O)c2c(NCc3ccc(F)cc3)nc3nn(Cc4ccc(OC)cc4)cc3c2n1 ?
2500
